Values compiled from the supplement of paper PMC10307832.

System: HCC-827
TEST_SUMMARY: relative viability (nuclei count vs DMSO), 5 days (fraction); higher = more cells survive
CONDITION_LABEL: first compound 0.1 µM
Field: relative viability. Provide a value for each of the molecules that follow.
// return a plain number; no unit text

Request - read-out relative viability | tested on HCC-827 | molecule Cc1cn(-c2cc(NC(=O)c3ccc(C)c(Nc4nccc(-c5cccnc5)n4)c3)cc(C(F)(F)F)c2)cn1 [Nilotinib] + O=C(CCCCCCC(=O)Nc1ccccc1)NO [Vorinostat] (partner 1 µM) 0.822

Request - read-out relative viability | tested on HCC-827 | molecule Cc1cn(-c2cc(NC(=O)c3ccc(C)c(Nc4nccc(-c5cccnc5)n4)c3)cc(C(F)(F)F)c2)cn1 [Nilotinib] + N=C(N)NC(=N)NCCc1ccccc1 [Phenformin] (partner 250 µM) 0.384

Request - read-out relative viability | tested on HCC-827 | molecule Cc1cn(-c2cc(NC(=O)c3ccc(C)c(Nc4nccc(-c5cccnc5)n4)c3)cc(C(F)(F)F)c2)cn1 [Nilotinib] + NC(=O)Nc1cc(-c2cccc(F)c2)sc1C(=O)N[C@H]1CCCNC1 [AZD7762] (partner 0.2 µM) 0.204

Request - read-out relative viability | tested on HCC-827 | molecule Cc1cn(-c2cc(NC(=O)c3ccc(C)c(Nc4nccc(-c5cccnc5)n4)c3)cc(C(F)(F)F)c2)cn1 [Nilotinib] + CC(=O)c1c(C)c2cnc(Nc3ccc(N4CCNCC4)cn3)nc2n(C2CCCC2)c1=O [Palbociclib] (partner 0.5 µM) 0.469

Request - read-out relative viability | tested on HCC-827 | molecule Cc1cn(-c2cc(NC(=O)c3ccc(C)c(Nc4nccc(-c5cccnc5)n4)c3)cc(C(F)(F)F)c2)cn1 [Nilotinib] + CS(=O)(=O)CCNCc1ccc(-c2ccc3ncnc(Nc4ccc(OCc5cccc(F)c5)c(Cl)c4)c3c2)o1 [Lapatinib] (partner 2 µM) 0.184
